// provenance: the supplement of paper PMC8728848

# system: Gal(a1-3)Gal
# test_name: glycan array binding signal (z-score within array); higher = stronger binding
# test_conditions: glycan notation: IUPAC condensed, linker removed
The full list was thinned out, with the strongest signals kept by preference.
In this section we review reported glycan array binding signal (z-score) values for a set of binders.
The reply should be a number, written without any unit.

Look over these answered cases.
binder	recorded_result
CBM32-5 (Clostridium perfringens) (protein) MGSSHHHHHHSSGLVPRGSHMASALPQGNMKATATSEHPDVGNEGLAKFAIDGKENTIWHTKYNPVEELPQSITLELGGSYEINKFTYLPRSGAKNGNITKYELHVSEDGNNFRKISEGNWDDSGSLKTLKFNSTKATHVKLVALEGVGGFASAAELNVFA	-0.718
HA-61200 (Pseudomonas aeruginosa), Q02SP8_PSEAB (protein) MNKCYALVWNVSQGCWNVVSEGSRRRGKPAGAKAAIASVLALLGATALAPAYALPSGGTVVGGSANGEIHLSGGNSLSVNQKVDKLIANWDSFSVAAGERVIFNQPSSSSIALNRVIGTKASDIQGRIDANGQVFLVNPNGVLFGRGAQVNVGGLVASTLDITDAEFNGNSSRYRFTGPSTNGVLNHGGAITAAEGGSIALLGAQVDNRGTVLAQMGGVGLGAGSDLTLNFDGNKLLDIRVDAGVANALASNGGLLKADGGRVLMAARTANALLNTVVNSQGAIEARSLRGKNGRIVLDG	-0.38
LecB PA14 (Pseudomonas aeruginosa) (protein) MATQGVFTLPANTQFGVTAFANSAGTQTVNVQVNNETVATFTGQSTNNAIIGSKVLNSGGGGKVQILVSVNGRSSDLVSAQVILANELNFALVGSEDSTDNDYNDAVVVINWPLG	-0.72
Eosinophil-derived neurotoxin (EDN) (Homo sapiens), P10153 (protein) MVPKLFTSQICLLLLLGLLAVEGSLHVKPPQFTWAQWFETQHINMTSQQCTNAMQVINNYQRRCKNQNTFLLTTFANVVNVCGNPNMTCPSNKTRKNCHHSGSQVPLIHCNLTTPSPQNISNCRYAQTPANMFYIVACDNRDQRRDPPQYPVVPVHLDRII	-0.363
Fm1D (Escherichia coli) (protein) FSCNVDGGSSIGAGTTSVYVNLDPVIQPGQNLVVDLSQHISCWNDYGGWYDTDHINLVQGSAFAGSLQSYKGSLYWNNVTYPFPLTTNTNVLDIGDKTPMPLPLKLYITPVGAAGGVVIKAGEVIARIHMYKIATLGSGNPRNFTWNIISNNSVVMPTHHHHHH	-0.142

Could you share which glycan array binding signal (z-score) value was measured for Pwp5 ND (Candida glabrata) (protein) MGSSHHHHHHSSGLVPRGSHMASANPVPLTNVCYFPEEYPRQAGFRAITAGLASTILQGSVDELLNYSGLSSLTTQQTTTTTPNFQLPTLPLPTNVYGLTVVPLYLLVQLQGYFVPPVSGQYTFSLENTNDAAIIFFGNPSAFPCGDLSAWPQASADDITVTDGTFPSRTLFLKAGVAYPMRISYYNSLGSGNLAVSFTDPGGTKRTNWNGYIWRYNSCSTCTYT ?
-0.029

Could you share which glycan array binding signal (z-score) value was measured for LecB LY19 (Pseudomonas aeruginosa) (protein) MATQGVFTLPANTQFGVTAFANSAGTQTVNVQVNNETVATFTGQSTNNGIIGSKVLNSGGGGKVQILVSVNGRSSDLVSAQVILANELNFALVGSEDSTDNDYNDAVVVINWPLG ?
-0.538

Could you share which glycan array binding signal (z-score) value was measured for FaeGab (Escherichia coli) (protein) WMTGDFNGSVDIGGSITADDYRQKWEWKVGTGLNGFGNVLNDLTNGGTKLTITVTGNKPILLGRTKEAFATPVSGGVDGIPQIAFTDYEGASVKLRNTDGETNKGLAYFVLPMKNAEGTKVGSVKVNASYAGVFGKGGVTSADGELFSLFADGLRAIFYGGLTTTVSGAALTSGSAAAARTELFGSLSRNDILGQIQRVNANITSLVDVAGSYREDMEYTDGTVVSAAYALGIANGQTIEATFNQAVTTSTQWSAPLNVAITYY ?
0.089
